Measured values drawn from paper PMC10304880 for this set.

In this section we review reported Selectivity Index JNK1/JNK3 values for a set of compounds.
TARGET_SYSTEM: JNK3 (Homo sapiens, UniProt P53779)
Construct: purchased Eurofins Pharma Discovery (KINOMEscan service)
Sequence (P53779 whole entry): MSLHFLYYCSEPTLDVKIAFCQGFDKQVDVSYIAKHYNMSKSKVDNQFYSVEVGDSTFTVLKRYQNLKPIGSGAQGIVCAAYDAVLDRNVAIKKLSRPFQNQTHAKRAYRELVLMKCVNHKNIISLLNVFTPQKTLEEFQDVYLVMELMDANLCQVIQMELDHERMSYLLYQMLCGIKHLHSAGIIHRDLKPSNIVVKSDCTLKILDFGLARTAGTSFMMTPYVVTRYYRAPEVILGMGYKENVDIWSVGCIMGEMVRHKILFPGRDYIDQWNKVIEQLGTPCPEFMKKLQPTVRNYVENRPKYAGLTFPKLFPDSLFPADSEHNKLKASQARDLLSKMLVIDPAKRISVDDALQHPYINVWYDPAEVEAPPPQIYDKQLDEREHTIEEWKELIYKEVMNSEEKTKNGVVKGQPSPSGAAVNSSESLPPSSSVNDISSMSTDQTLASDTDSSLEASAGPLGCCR
METHOD_NOTES: KINOMEscan JNK3 binding (Kd)
STATED_CONDITIONS: ratio of Kd values

*Q* Hi! What's the reported Selectivity Index JNK1/JNK3 for O=c1c2ccc([N+](=O)[O-])cc2nc2n1-c1ccccc1C2=NO on JNK3 (Homo sapiens, UniProt P53779)?
*A* >5.6

*Q* Subsequent entry: O=c1c2ccc(Br)cc2nc2n1-c1ccccc1C2=NO
*A* >6

***
*Q* Hi! What's the reported Selectivity Index JNK1/JNK3 for O=c1c2ccccc2nc2n1-c1ccc(-c3ccccc3)cc1C2=NO on JNK3 (Homo sapiens, UniProt P53779)?
*A* >100

*Q* Subsequent entry: O=c1c2ccccc2nc2n1-c1ccc([N+](=O)[O-])cc1C2=NO
*A* >40
